These entries and their values trace back to patent US12624112.

target-of-assay: T1, ST2 on the effector cells (KU812, KU812/NF-κB-1#, HUVEC, HMC-1) (human, UniProt Q01638 19-556)
T1 sequence (looked up): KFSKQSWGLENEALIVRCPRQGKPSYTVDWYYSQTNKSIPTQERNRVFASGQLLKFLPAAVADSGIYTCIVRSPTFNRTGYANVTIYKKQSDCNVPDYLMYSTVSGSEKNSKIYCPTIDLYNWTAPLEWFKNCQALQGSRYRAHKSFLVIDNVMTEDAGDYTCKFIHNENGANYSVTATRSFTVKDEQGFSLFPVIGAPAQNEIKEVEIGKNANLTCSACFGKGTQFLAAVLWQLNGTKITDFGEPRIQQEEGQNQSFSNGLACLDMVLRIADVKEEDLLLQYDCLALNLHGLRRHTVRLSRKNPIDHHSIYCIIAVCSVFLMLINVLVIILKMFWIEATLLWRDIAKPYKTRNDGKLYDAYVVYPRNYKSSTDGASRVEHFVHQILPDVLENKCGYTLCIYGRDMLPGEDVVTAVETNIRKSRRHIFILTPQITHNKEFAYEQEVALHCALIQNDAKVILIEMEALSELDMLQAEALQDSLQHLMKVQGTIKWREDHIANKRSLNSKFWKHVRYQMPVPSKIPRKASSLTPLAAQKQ
assay: cell-based or functional assay
The entries below come with measured Relative activity, HMC-1 IL8 production by IL33 values attached.
State just the number; it will be interpreted in %.

Record excerpt, results attached:
5888-153-H3L2 (antibody, human IgG4 S228P, kappa, V domains shown, Humanized antibody) VH: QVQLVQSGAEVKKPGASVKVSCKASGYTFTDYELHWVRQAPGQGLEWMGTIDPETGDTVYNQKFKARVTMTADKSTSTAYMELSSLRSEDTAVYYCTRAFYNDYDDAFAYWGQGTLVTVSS VL: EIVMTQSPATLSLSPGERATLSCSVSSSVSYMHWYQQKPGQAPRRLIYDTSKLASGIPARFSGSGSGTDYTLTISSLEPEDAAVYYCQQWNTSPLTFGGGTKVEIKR : 107
5887-41-H1L0 (antibody, human IgG4 S228P, kappa, V domains shown, Humanized antibody) VH: QVQLQESGPGLVKPSQTLSLTCTVSGYSITSDYAWDWIRQPPGKGLEWIGYIRYSGDTYYNPSLKSRVTISRDTSKNQFSLKLSSVTAADTAVYYCATTMMDTMDYWGQGTLVTVSS VL: DIVLTQSPASLAVSPGQRATITCRASKSVSTSGNSYMHWYQQKPGQPPKLLIYLASNLESGVPARFSGSGSGTDFTLTINPVEANDTANYYCQHSREFPLTFGQGTKLEIKR : 81.6

Okay, next one:
Query block: State the recorded Relative activity, HMC-1 IL8 production by IL33 for this entry: 5888-153-H3L1 (antibody, human IgG4 S228P, kappa, V domains shown, Humanized antibody) VH: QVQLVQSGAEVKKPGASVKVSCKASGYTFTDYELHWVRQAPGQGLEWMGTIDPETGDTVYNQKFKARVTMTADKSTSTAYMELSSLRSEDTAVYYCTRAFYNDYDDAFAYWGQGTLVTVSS VL: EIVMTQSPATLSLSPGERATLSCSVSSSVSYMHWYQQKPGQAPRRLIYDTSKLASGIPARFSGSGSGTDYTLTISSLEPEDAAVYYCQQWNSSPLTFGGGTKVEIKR
Result block: 213
